These data points were gathered from patent US20240132624A1.

Target: T1, cyno FcRn/b2M (cyno, UniProt Q8SPV9 24-297; Q8SPW0 21-119, biotinylated)
T1 construct: bought recombinant biotinylated protein (Immunitrack ITF05 or ACRO FCM-C82W5); also called cFcRn; cFcRn/cb2M
T1 sequence (Q8SPV9 24-297 limits assumed, chain 1 of 2): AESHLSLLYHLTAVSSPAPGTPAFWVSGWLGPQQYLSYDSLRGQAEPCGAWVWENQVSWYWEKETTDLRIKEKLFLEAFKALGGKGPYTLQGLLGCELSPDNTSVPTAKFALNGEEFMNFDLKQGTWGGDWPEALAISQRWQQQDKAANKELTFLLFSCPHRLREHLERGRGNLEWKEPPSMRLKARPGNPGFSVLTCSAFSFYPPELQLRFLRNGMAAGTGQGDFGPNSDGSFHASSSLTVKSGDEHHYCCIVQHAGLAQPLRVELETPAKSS
T1 sequence (Q8SPW0 21-119 limits assumed, chain 2 of 2): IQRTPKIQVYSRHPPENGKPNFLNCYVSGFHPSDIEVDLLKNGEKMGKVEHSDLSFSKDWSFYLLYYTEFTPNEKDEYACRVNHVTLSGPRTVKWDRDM
Experiment: SPR off-rate; pH 7.4 vs pH 6.0;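 note: surface plasmon resonance with diluted periplasmic extracts flowed over ligand surfaces, 120 s association and 600–3600 s dissociation at 25 °C, running buffer containing 150 mM NaCl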

{"Binder": "T0263018B11 W100cL (VHH, name in Kabat numbering, FLAG3-His6 tagged) VHH: EVQLVESGGGVVQPGGSLRLSCAASGFTFSSYAMYWVRQAPGKGLEWVSAISSGGGSTDYADSVKGRFTISRDNSKNTLYLQMNSLRPEDTALYYCAADTLYTSLTLYSYWGQGTLVTVSS", "kd ratio pH 7.4/6.0": 84}
{"Binder": "T0263018B11 Y32A (VHH, name in Kabat numbering, FLAG3-His6 tagged) VHH: EVQLVESGGGVVQPGGSLRLSCAASGFTFSSAAMYWVRQAPGKGLEWVSAISSGGGSTDYADSVKGRFTISRDNSKNTLYLQMNSLRPEDTALYYCAADTLYTSLTWYSYWGQGTLVTVSS", "kd ratio pH 7.4/6.0": 70}
